FYI, the data here is from patent US20070043104A1.

TGT: human urotensin II receptor (Homo sapiens)
Construct: expressed in transfected cells; host or cells: NIH3T3 cells
Sequence (Q9UKP6 1-389): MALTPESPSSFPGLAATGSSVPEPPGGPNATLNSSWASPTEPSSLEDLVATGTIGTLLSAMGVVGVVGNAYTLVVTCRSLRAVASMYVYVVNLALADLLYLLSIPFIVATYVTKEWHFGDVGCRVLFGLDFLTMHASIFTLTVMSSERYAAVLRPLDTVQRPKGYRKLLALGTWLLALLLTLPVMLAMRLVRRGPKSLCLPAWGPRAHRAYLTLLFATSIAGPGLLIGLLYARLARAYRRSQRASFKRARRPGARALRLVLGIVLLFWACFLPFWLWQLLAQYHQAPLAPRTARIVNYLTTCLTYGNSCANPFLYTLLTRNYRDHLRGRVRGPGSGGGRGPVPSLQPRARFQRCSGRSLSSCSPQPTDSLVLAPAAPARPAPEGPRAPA
ASSAY REMARKS: Receptor Selection and Amplification (R-SAT) functional assay, NIH3T3 cells transfected with human urotensin II receptor and β-galactosidase marker
Assay type: cell-based
PROTOCOL CONDITIONS: Table 4, negative of the log EC50 in molarity, average ± standard deviation of 2-5 determinations, eight doses in triplicate
Counter-ions that a name gives are not always drawn.
PROPERTY MEASURED: pEC50
By convention, pEC50 is the negative base-10 log of a molar concentration.

Recall and state the measured pEC50 for CN(C)CCC(NC(=O)CCc1ccccc1)c1ccc2ccccc2c1 (centres unmarked) [C4, HCl] .
6.22

Recall and state the measured pEC50 for Cc1ccc(C(CCN(C)C)NC(=O)C=Cc2ccc(C(F)(F)F)cc2)cc1 (centres unmarked) [B8, HCl] .
6.36

Recall and state the measured pEC50 for CN(C)CCC(NC(=O)C#Cc1ccccc1)c1ccc2ccccc2c1 (centres unmarked) [C10, HCl] .
6.34

Recall and state the measured pEC50 for CN(C)CCC(NC(=O)/C=C/c1ccccc1)c1ccc2ccccc2c1 (centres unmarked) [C7, HCl] .
6.23

Recall and state the measured pEC50 for Cc1ccc(C(CCN(C)C)NC(=O)CCc2ccccc2)cc1 (centres unmarked) [B4, HCl] .
5.34

Recall and state the measured pEC50 for CN(C)CCC(NC(=O)/C=C/c1ccccc1)c1ccc(Cl)cc1 (centres unmarked) [A7, HCl] .
6.37

Recall and state the measured pEC50 for Cc1ccc(C(CCN(C)C)NC(=O)Cc2ccc(C(F)(F)F)cc2)cc1 (centres unmarked) [B2, HCl] .
5.95

Recall and state the measured pEC50 for COc1ccc(CCC(=O)NC(CCN(C)C)c2ccc(C)cc2)cc1 (centres unmarked) [B6, HCl] .
5.27

Recall and state the measured pEC50 for COc1ccc(CCC(=O)NC(CCN(C)C)c2ccc(Cl)cc2)cc1 (centres unmarked) [A6, HCl] .
5.53

Recall and state the measured pEC50 for CN(C)CCC(NC(=O)Cc1ccccc1)c1ccc(Cl)cc1 (centres unmarked) [A1, HCl] .
5.73

Recall and state the measured pEC50 for Cc1ccc(C(CCN(C)C)NC(=O)C=Cc2ccccc2)cc1 (centres unmarked) .
5.81

Recall and state the measured pEC50 for Cc1ccc(C(CCN(C)C)NC(=O)Cc2ccccc2)cc1 (centres unmarked) [B1, HCl] .
5.38

Recall and state the measured pEC50 for CN(C)CCC(NC(=O)C=Cc1ccc(C(F)(F)F)cc1)c1ccc2ccccc2c1 (centres unmarked) [C8, HCl] .
6.87

Recall and state the measured pEC50 for CC(C(=O)NC(CCN(C)C)c1ccc2ccccc2c1)c1ccc(C(F)(F)F)cc1 (centres unmarked) [C5, HCl] .
6.43

Recall and state the measured pEC50 for CN(C)CCC(NC(=O)C#Cc1ccccc1)c1ccc(Cl)cc1 (centres unmarked) [A10, HCl] .
6.40

Recall and state the measured pEC50 for COc1ccc(CC(=O)NC(CCN(C)C)c2ccc(C)cc2)cc1 (centres unmarked) [B3, HCl] .
5.23

Recall and state the measured pEC50 for COc1ccc(C=CC(=O)NC(CCN(C)C)c2ccc(C)cc2)cc1 (centres unmarked) [B9, HCl] .
5.70

Recall and state the measured pEC50 for CN(C)CCC(NC(=O)Cc1ccccc1)c1ccc2ccccc2c1 (centres unmarked) [C1, HCl] .
5.76

Recall and state the measured pEC50 for CN(C)CCC(NC(=O)Cc1ccc(C(F)(F)F)cc1)c1ccc(Cl)cc1 (centres unmarked) [A2, HCl] .
6.06

Recall and state the measured pEC50 for COc1ccc(C=CC(=O)NC(CCN(C)C)c2ccc(Cl)cc2)cc1 (centres unmarked) [A9, HCl] .
6.29

---

For each entry below, report its Emax value.
TGT: human urotensin II receptor (Homo sapiens)
Construct: expressed in transfected cells; host or cells: NIH3T3 cells
Sequence (Q9UKP6 1-389): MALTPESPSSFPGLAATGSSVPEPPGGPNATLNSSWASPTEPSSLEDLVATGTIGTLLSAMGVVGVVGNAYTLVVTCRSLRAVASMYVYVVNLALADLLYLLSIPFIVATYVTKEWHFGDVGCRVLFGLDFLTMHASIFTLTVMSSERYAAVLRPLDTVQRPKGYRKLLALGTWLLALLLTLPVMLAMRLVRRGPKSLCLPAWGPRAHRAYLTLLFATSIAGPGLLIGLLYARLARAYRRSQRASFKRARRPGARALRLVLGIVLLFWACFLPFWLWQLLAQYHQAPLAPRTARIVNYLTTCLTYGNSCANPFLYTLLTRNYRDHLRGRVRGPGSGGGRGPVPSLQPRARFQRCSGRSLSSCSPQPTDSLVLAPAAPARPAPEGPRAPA
ASSAY REMARKS: Receptor Selection and Amplification (R-SAT) functional assay, NIH3T3 cells transfected with human urotensin II receptor and β-galactosidase marker
Assay type: cell-based
PROTOCOL CONDITIONS: NIH3T3, Table 3, percent activation normalized to the reference ligand assigned 100%, read-out: Efficacy
Counter-ions that a name gives are not always drawn.
Your answer is read as %, so omit the unit and give the number.

Recall and state the measured Emax for CN(C)CCC(OC(=O)c1cccc2ccccc12)c1ccc(Cl)cc1.Cl (stereo not drawn) [4k, HCl] .
95

Recall and state the measured Emax for Cc1ccsc1C(=O)OC(CCN(C)C)c1ccc(Cl)cc1.Cl (stereo not drawn) [4j, HCl] .
119

Recall and state the measured Emax for Cc1ccc(C)c(C(=O)OC(CCN(C)C)c2ccc(Cl)cc2)c1.Cl (stereo not drawn) [4h, HCl] .
86

Recall and state the measured Emax for CN(C)CCC(OC(=O)c1cn(C)c2ccccc12)c1ccc(Cl)cc1 (stereo not drawn) [4o, HCl] .
115

Recall and state the measured Emax for CN(C)CCC(OC(=O)Nc1ccc(Oc2ccccc2)cc1)c1ccc(Cl)cc1 (stereo not drawn) .
96

Recall and state the measured Emax for CN(C)CCC(NC(=O)c1ccc(Oc2ccccc2)cc1)c1ccc(Cl)cc1.O=C(O)C(=O)O (stereo not drawn) [5p, oxalate] .
91

Recall and state the measured Emax for Cc1ccc(C(=O)NC(CCN(C)C)c2ccc(Cl)cc2)c(C)c1.O=C(O)C(=O)O (stereo not drawn) [5i, oxalate] .
147

---

TGT: human urotensin II receptor (Homo sapiens, UniProt Q9UKP6)
Construct: expressed in transfected cells; host or cells: NIH3T3 cells
ASSAY REMARKS: Receptor Selection and Amplification (R-SAT) functional assay, NIH3T3 cells transfected with human urotensin II receptor and β-galactosidase marker
Type: cell-based
PROTOCOL CONDITIONS: Table 3, negative of the log EC50 in molarity, average ± standard deviation (or range) of determinations, eight doses in triplicate
Label scheme for pEC50: lower than 6 is Criterion not met, 6 and above is Criterion met.

Given Cc1ccccc1C(=O)OC(CCN(C)C)c1ccc(Cl)cc1.Cl (stereo not shown) , state whether its pEC50 is at least 6.
Criterion not met

Given Cc1ccc(C(=O)NC(CCN(C)C)c2ccc(Cl)cc2)c(C)c1.O=C(O)C(=O)O (stereo not shown) , state whether its pEC50 is at least 6.
Criterion not met

Given CN(C)CCC(OC(=O)c1cccc2ccccc12)c1ccc(Cl)cc1.Cl (stereo not shown) , state whether its pEC50 is at least 6.
Criterion not met

Given Cc1ccccc1NC(=O)OC(CCN(C)C)c1ccc(Cl)cc1 (stereo not shown) , state whether its pEC50 is at least 6.
Criterion not met

Given Cc1ccc(C)c(C(=O)OC(CCN(C)C)c2ccc(Cl)cc2)c1.Cl (stereo not shown) , state whether its pEC50 is at least 6.
Criterion not met

Given CN(C)CCC(NC(=O)c1ccc(Oc2ccccc2)cc1)c1ccc(Cl)cc1.O=C(O)C(=O)O (stereo not shown) , state whether its pEC50 is at least 6.
Criterion met

Given CN(C)CCC(NC(=O)Cc1ccccc1)c1ccc(Cl)cc1.O=C(O)C(=O)O (stereo not shown) , state whether its pEC50 is at least 6.
Criterion not met

Given Cc1ccc(C(=O)OC(CCN(C)C)c2ccc(Cl)cc2)cc1.Cl (stereo not shown) , state whether its pEC50 is at least 6.
Criterion not met

Given Cc1ccccc1NC(=O)NC(CCN(C)C)c1ccc(Cl)cc1 (stereo not shown) , state whether its pEC50 is at least 6.
Criterion not met

Given CN(C)CCC(OC(=O)NCc1ccccc1)c1ccc(Cl)cc1 (stereo not shown) , state whether its pEC50 is at least 6.
Criterion not met

Given CN(C)CCC(OC(=O)c1ccc(-c2ccccc2)cc1)c1ccc(Cl)cc1.Cl (stereo not shown) , state whether its pEC50 is at least 6.
Criterion met

Given Cc1cccc(Cl)c1C(=O)NC(CCN(C)C)c1ccc(Cl)cc1.O=C(O)C(=O)O (stereo not shown) , state whether its pEC50 is at least 6.
Criterion not met
